Reference source for all entries: ChEMBL document CHEMBL5150064

Target: Phosphatidylinositol 4,5-bisphosphate 3-kinase catalytic subunit alpha isoform (Homo sapiens, UniProt P42336, H1047R)
Sequence (P42336 whole entry H1047R, canonical isoform): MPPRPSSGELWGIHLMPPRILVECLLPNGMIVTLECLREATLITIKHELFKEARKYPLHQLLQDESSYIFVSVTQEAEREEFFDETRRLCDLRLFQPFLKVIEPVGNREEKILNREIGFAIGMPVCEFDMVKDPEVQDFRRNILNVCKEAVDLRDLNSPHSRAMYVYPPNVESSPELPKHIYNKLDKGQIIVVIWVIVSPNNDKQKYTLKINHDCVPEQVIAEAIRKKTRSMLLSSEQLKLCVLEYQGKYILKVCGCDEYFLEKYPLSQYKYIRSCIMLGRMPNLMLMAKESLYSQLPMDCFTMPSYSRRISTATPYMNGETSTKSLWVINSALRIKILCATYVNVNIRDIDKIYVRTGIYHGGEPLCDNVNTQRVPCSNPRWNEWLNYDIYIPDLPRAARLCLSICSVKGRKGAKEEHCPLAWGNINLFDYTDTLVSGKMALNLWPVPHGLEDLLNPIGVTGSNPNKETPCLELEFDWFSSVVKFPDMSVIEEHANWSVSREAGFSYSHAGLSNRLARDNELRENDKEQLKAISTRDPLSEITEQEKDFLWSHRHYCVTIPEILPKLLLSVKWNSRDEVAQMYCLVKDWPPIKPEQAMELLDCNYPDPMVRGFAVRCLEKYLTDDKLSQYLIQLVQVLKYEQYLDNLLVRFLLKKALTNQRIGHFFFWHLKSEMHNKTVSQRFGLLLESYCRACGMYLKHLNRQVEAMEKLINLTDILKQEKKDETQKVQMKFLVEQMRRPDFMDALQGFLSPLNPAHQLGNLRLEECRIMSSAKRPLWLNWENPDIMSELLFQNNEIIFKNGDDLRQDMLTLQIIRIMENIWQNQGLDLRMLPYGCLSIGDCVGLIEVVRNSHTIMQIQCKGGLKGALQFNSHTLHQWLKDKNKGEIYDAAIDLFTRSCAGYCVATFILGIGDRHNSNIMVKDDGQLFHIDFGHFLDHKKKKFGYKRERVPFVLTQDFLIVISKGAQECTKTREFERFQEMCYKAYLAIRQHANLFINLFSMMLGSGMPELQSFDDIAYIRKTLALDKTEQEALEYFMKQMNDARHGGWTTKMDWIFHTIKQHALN
Please note: EC50 exactly at 50 nM is N. Only values below 50 nM get Y.

# TODO verify EC50 < 50 nM strictly for this compound: CC[C@H](Nc1ccc2c(c1)OCCn1cc(N3C(=O)OC[C@H]3C(F)(F)F)nc1-2)C(N)=O
N

Is EC50 of NC(=O)[C@@H]1CCCN1c1ccc2c(c1)OCCn1cc(N3C(=O)OC[C@H]3C(F)(F)F)nc1-2 strictly below 50 nM?
Y

Strictly below 50 nM: is that where EC50 of C[C@H](Oc1ccc2c(c1)OCCn1cc(-c3nc(CO)nn3CC(F)(F)F)nc1-2)C(N)=O sits?
Y

State whether 50 nM exceeds EC50 recorded for CC(C)n1nc(N)nc1-c1cn2c(n1)-c1ccc(O[C@@H](C)C(N)=O)cc1OCC2 .
N

Kindly consider the entry below.
Hello, is EC50 of the following compound strictly smaller than 50 nM? CC(C)[C@H](Nc1ccc2c(c1)OCCn1cc(N3C(=O)OC[C@H]3C(F)(F)F)nc1-2)C(N)=O
N

----------
bioavailability values for the compounds below.
Assay: Oral bioavailability in Sprague-Dawley rat plasma at 5 mg/kg measured upto 8 hrs by LC-MS/MS method
Format: ADME, organism-based

Dear colleague, I am looking for the recorded bioavailability of the following compound: NC(=O)[C@@H]1CCCN1c1ccc2c(c1)OCCn1cc(N3CC[C@H](O)C3=O)nc1-2
9%

Query (compound): NC(=O)[C@@H](Nc1ccc2c(c1)OCCn1cc(N3C(=O)OC[C@H]3C(F)F)nc1-2)C1CC1 ; field requested: bioavailability
41%

Which value of bioavailability has been reported for CC[C@H](Nc1ccc2c(c1)OCCn1cc(N3C(=O)OC[C@H]3C(F)(F)F)nc1-2)C(N)=O in the records?
82%

Return reported bioavailability; argument: NC(=O)[C@@H]1CCCN1c1ccc2c(c1)OCCn1cc(N3C(=O)OC[C@H]3C(F)F)nc1-2
35%

Can you look up the measured bioavailability of CC(C)[C@H](Nc1ccc2c(c1)OCCn1cc(N3C(=O)OC[C@H]3C(F)(F)F)nc1-2)C(N)=O for me?
137%

Field request: bioavailability | item: C[C@H](Nc1ccc2c(c1)OCCn1cc(N3C(=O)OC[C@H]3C(F)F)nc1-2)C(N)=O [INAVOLISIB]
58%

Could you share which bioavailability value was measured for C[C@H](Nc1ccc2c(c1)OCCn1cc(N3C(=O)OC[C@H]3C(F)(F)F)nc1-2)C(N)=O ?
65%

// query bioavailability value for entry NC(=O)[C@@H]1CCCN1c1ccc2c(c1)OCCn1cc(N3C(=O)OC[C@H]3C(F)(F)F)nc1-2
57%

Recorded bioavailability of C[C@H](Oc1ccc2c(c1)OCCn1cc(-c3nc(CO)nn3CC(F)(F)F)nc1-2)C(N)=O , please.
5%

What does the record list as bioavailability for C[C@@H]1COC(=O)N1c1cn2c(n1)-c1ccc(N3CCC[C@H]3C(N)=O)cc1OCC2 ?
59%

----------
Assay: AUC in NCR nude mouse at 50 mg/kg, po measured upto 8 hrs by LC-MS/MS analysis
Format: ADME, organism-based
Parameters: dose 50 mg/kg, time < 8 hrs, route po
Settings: in vivo
Recorded Endpoint: AUC at 8 h
Quick note: number first, unit second.

Recorded AUC at 8 h for C[C@H](Nc1ccc2c(c1)OCCn1cc(N3C(=O)OC[C@H]3C(F)F)nc1-2)C(N)=O , please?
32.9 µM·h

----------
Assay: Apparent permeability across apical to basolateral side in MDCK cells at 10 uM measured upto 180 mins by LC-MS/MS method
Type: ADME, cell-based, Canis lupus familiaris
Conditions: dog
Property: Papp A→B at 3 h, 10 µM; scope: individual compounds
# output: bare number, implied unit ×10⁻⁶ cm/s

Would you kindly share the measured Papp A→B at 3 h, 10 µM for NC(=O)[C@@H]1CCCN1c1ccc2c(c1)OCCn1cc(N3CC[C@H](O)C3=O)nc1-2 ?
0.3

Record request: Papp A→B at 3 h, 10 µM value, item NC(=O)[C@@H]1CCCN1c1ccc2c(c1)OCCn1cc(N3C(=O)OC[C@H]3C(F)(F)F)nc1-2
3.2

Would you mind telling me what Papp A→B at 3 h, 10 µM value was observed for NC(=O)[C@@H]1CCCN1c1ccc2c(c1)OCCn1cc(N3C(=O)OC[C@H]3C(F)F)nc1-2 ?
4.3

---
Can you share its Papp A→B at 3 h, 10 µM? I mean this compound: NC(=O)[C@@H](Nc1ccc2c(c1)OCCn1cc(N3C(=O)OC[C@H]3C(F)F)nc1-2)C1CC1
3.2

Using the record for CC(C)[C@@H]1COC(=O)N1c1cn2c(n1)-c1ccc(N3CCC[C@H]3C(N)=O)cc1OCC2 , report its Papp A→B at 3 h, 10 µM.
8.4

Recorded Papp A→B at 3 h, 10 µM of NC(=O)[C@@H]1CCCN1c1ccc2c(c1)OCCn1cc(N3C(=O)OC[C@H]3CF)nc1-2 , please.
2.6

// returns reported Papp A→B at 3 h, 10 µM for input NC(=O)[C@@H]1CCCN1c1ccc2c(c1)OCCn1cc(N3CCOC3=O)nc1-2
3.1

Fill in: Papp A→B at 3 h, 10 µM of NC(=O)[C@@H](Nc1ccc2c(c1)OCCn1cc(N3C(=O)OC[C@H]3CF)nc1-2)C1CC1 is ___
0.8

# query: Papp A→B at 3 h, 10 µM of entry C[C@H](Nc1ccc2c(c1)OCCn1cc(N3C(=O)OC[C@H]3C(F)(F)F)nc1-2)C(N)=O
1

----------
Target: Phosphatidylinositol 4,5-bisphosphate 3-kinase catalytic subunit alpha isoform (Homo sapiens, UniProt P42336)
Sequence (P42336 whole entry, canonical isoform): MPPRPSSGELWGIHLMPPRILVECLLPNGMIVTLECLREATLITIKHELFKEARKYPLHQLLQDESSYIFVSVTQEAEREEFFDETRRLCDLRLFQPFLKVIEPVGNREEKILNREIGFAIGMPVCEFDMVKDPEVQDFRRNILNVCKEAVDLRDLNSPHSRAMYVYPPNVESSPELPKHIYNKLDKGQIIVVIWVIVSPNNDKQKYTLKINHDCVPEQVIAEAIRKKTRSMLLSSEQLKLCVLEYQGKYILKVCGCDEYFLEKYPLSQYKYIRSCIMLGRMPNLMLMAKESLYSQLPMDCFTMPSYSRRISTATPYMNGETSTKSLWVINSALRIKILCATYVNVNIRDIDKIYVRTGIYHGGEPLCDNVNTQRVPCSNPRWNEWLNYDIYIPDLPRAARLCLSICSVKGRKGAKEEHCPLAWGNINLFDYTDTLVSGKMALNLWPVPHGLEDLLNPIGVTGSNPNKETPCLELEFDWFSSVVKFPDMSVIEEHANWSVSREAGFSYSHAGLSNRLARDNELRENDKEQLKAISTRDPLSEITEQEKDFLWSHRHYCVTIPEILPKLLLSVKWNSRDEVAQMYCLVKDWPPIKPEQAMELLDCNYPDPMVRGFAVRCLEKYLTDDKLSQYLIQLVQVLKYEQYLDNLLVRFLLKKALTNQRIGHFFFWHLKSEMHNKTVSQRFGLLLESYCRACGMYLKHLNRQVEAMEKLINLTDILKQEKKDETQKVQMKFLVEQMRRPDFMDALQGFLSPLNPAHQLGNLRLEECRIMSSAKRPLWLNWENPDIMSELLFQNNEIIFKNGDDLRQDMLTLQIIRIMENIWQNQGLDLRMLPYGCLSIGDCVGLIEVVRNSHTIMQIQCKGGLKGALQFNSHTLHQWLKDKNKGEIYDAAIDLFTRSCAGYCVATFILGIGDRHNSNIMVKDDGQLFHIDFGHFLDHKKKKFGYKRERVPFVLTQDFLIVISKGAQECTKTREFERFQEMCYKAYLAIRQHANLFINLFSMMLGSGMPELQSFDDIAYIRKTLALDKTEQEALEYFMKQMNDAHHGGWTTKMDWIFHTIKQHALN
Assay: Inhibition of PI3Kalpha in human HDQ-P1 cells assessed as reduction in PRAS40 phosphorylation after 24 hrs by electrochemiluminescent assay
Recorded Endpoint: pEC50
Quick note: pEC50 means taking -log10 of the concentration in moles per liter.

Can you look up the measured pEC50 of NC(=O)[C@@H]1CCCN1c1ccc2c(c1)OCCn1cc(N3CC[C@H](O)C3=O)nc1-2 for me?
6.49

----------
Test: Clearance in Sprague-Dawley rat plasma at 1 mg/kg, iv measured upto 8 hrs by LC-MS/MS analysis
Type: ADME, organism-based
Binary call on clearance: T from 60 mL/min/kg upward, F beneath that.

Assess whether reported clearance for NC(=O)[C@@H](Nc1ccc2c(c1)OCCn1cc(N3C(=O)OC[C@H]3C(F)(F)F)nc1-2)C1CC1 sits at 60 mL/min/kg or higher.
T

Textbook exercise: given the entry C[C@@H]1COC(=O)N1c1cn2c(n1)-c1ccc(N3CCC[C@H]3C(N)=O)cc1OCC2 , state whether its clearance is greater than or equal to 60 mL/min/kg.
F

Check the entry C[C@H](Nc1ccc2c(c1)OCCn1cc(N3C(=O)OC[C@H]3C(F)F)nc1-2)C(N)=O [INAVOLISIB] : does clearance equal or exceed 60 mL/min/kg?
T

----------
Assay: Thermodynamic aqueous solubility of the compound at pH 2
Assay type: physicochemical
Settings: read-out: Therm_solubility
Recorded Endpoint: solubility thermodynamic (µg/mL)
# output: bare number, implied unit µg/mL

Can you look up the measured solubility thermodynamic of C[C@H](Nc1ccc2c(c1)OCCn1cc(N3C(=O)OC[C@H]3C(F)F)nc1-2)C(N)=O for me?
615

----------
Assay: AUC in NCR nude mouse at 5 mg/kg, po measured upto 8 hrs by LC-MS/MS analysis
Format: ADME, organism-based
Design: time < 8 hrs, dose 5 mg/kg, route po
Settings: in vivo
Recorded Endpoint: AUC at 8 h (µM·h)
Unit µM·h implied. Number only.

Would you kindly share the measured AUC at 8 h for C[C@H](Nc1ccc2c(c1)OCCn1cc(N3C(=O)OC[C@H]3C(F)F)nc1-2)C(N)=O ?
2.5

----------
Assay: Lipophilicity, logD of compound in 1-Octanol/PBS at pH 7.4 by LC-MS/MS method
Assay type: physicochemical
Quick reference: logD of the listed items.
Would you mind answering with just the numeric figure?

Answered examples (4):
Suppose we examine the molecule C[C@H](Oc1ccc2c(c1)OCCn1cc(-c3ncnn3CC(F)(F)F)nc1-2)C(N)=O ; what logD value has been reported?
2.2

Given NC(=O)[C@@H]1CCCN1c1ccc2c(c1)OCCn1cc(N3C(=O)OC[C@H]3C(F)F)nc1-2 , state its recorded logD.
1.3

Reported logD, molecule C[C@@H]1COC(=O)N1c1cn2c(n1)-c1ccc(N3CCC[C@H]3C(N)=O)cc1OCC2 : ____
0.7

Requested read-out: logD. Entry: C[C@@H]1CN(c2cn3c(n2)-c2ccc(N4CCC[C@H]4C(N)=O)cc2OCC3)C(=O)O1
1.1

# evaluate next
I'd like to know its logD. The molecule in question is C[C@H](Oc1ccc2c(c1)OCCn1cc(-c3nc(CO)nn3CC(F)(F)F)nc1-2)C(N)=O
1.5
